Provenance of the data: paper PMC7186176

Subject Of Test: T1, MBP-tagged PupR CCSSD (PupR residues 110–324) (Pseudomonas capeferrum, UniProt Q52209 110-324)
T1 construct: PupR, inner membrane sigma regulator of Pseudomonas capeferrum (formerly Pseudomonas putida WCS358), periplasmic CCSSD, residues 110-324; also called complete CCSSD; C-terminal cell-surface signaling domain; source: E. coli BL21(DE3)pLysS, co-expressed with GST-PupB NTSD, clarified lysate (pull-down); not shown: MBP, N-terminal, kept
T1 sequence (looked up): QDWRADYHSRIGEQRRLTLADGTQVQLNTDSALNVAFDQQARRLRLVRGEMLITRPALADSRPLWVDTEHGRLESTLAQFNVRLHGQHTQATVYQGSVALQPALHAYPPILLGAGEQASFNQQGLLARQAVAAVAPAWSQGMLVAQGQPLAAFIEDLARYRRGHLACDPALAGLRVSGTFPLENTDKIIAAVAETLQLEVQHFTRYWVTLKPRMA
Protocol Details: ITC; MBP-tagged PupR CCSSD (220-235 μM) titrated into PupB NTSD (27.5-40 μM); 15 °C; 25 mM HEPES pH 7.5, 400 mM LiCl, 10% glycerol; global fit of three runs in SEDPHAT with a local incompetent fraction
Stated Conditions: both partners purified
Reported Metric: pKd
pKd is a log-scale quantity: -log10 of the concentration expressed in molar.

What value of pKd has been reported for the following binder? PupB NTSD (purified) (domain or fragment, Pseudomonas capeferrum, UniProt P38047 49-128, looked up, PupB, outer membrane TonB-dependent transducer of Pseudomonas capeferrum (formerly Pseudomonas putida WCS358), N-terminal signaling domain; also called N-terminal signaling domain of PupB) AQADFDIPAGPLAPALAHFGQSAHILLSYPTALTEGRSTSGLAGRFDIDQGLAILLAGTGLEASRGANASYSLQASASTG
6.16
